Experiment: Cytotoxicity assay (MTT) on fresh spleen cells
Format: cell-based, mice
Settings: BALB/C, fresh spleen cells (T-lymphocytes); T-lymphocyte (mouse spleen cells), 48 h, MTT
Experimental: Supplementary Figure 62. Inhibition of the growth of T-lymphocytes by synthetic compounds 1, 31, and 41-43. […] Bioassay for the immunosuppressive activities17 Preparation of spleen cells from mice BALB/C mice were sacrificed and spleens were removed aseptically. A single cell suspension was prepared after cell debris and clumps were removed. Erythrocytes were lysed using ammonium chloride buffer solution. […]
Endpoint Name: CC50 at 48 h (µM)
Unit µM implied. Number only.

Compound	CC50 at 48 h [µM]
CO[C@H]1[C@@H](O)[C@@H](C)O[C@@H](O[C@H]2[C@@H](OC)C[C@H](O[C@H]3[C@@H](OC)C[C@H](O[C@H]4[C@@H](OC)C[C@H](O[C@@H]5[C@@H](C)O[C@]6(C[C@H]5OC)OCO[C@@H]5C[C@H](O[C@@H](C)[C@@]7(O)CCC8C9CC=C%10C[C@@H](O)CC[C@]%10(C)C9CC[C@@]87C)O[C@H](C)[C@H]5O6)O[C@@H]4C)O[C@@H]3C)O[C@@H]2C)[C@@H]1OC(C)=O (stereo partly drawn) [C1′′-epi-periploside A (31), C1′′-epi-periploside A]	1.58
CO[C@@H]1C[C@]2(OCO[C@@H]3C[C@H](O[C@@H](C)[C@@]4(O)CCC5C6CC=C7C[C@@H](O)CC[C@]7(C)C6CC[C@@]54C)O[C@H](C)[C@H]3O2)O[C@H](C)[C@H]1O (stereo partly shown) [Disaccharide 42]	12.8
CO[C@@H]1C[C@]2(OCO[C@@H]3C[C@@H](O[C@@H](C)[C@@]4(O)CCC5C6CC=C7C[C@@H](O)CC[C@]7(C)C6CC[C@@]54C)O[C@H](C)[C@H]3O2)O[C@H](C)[C@H]1O (stereo partly shown) [Disaccharide 43]	27.7

In the following, a different compound is considered.
Measured CC50 at 48 h, COC1CC(OC2C(C)OC3(CC2OC)OCOC2CC(OC(C)C4(O)CCC5C6CC=C7CC(O)CCC7(C)C6CCC54C)OC(C)C2O3)OC(C)C1OC1CC(OC)C(OC2CC(OC)C(OC3OC(C)C(O)C(OC)C3OC(C)=O)C(C)O2)C(C)O1 (stereo not shown) [Periploside A (1), Periploside A] : 2.1
